- System: SK-MEL-2
- TEST_DESCRIPTION: NCI tumour cell line growth inhibition, 48 h
The source made the active and inactive calls. Rule as the data show it: active = GI50 up to about 1.1 µM and inactive = higher.
QUANTITY_KIND: GI50

Ask: Given the entry `Cc1ccc2c(c1)C(=O)c1[nH]c3ccc(F)cc3c1CO2` , report its measured GI50.
Result: 12.1 µM (inactive)

Ask: Given the entry `Cc1nc2c(c(=O)[nH]1)S/C(=C(/C#N)c1nc3ccccc3[nH]1)N2c1ccccc1` , report its measured GI50.
Result: > 100 µM (inactive)

Ask: Given the entry COC(=O)CC1NC(=O)C1C(C)(OC)OC (centres undefined) , report its measured GI50.
Result: > 100 µM (inactive)

Ask: Given the entry `CCCCCCCC[N+](C)(C)Cc1ccc(C[N+](C)(C)CCCCCCCC)cc1` , report its measured GI50.
Result: 14.9 µM (inactive)

---

Kindly supply the reported GI50 values for the records listed here.
- Test system: DU-145
- TEST_DESCRIPTION: NCI tumour cell line growth inhibition, 48 h
Calls of active or inactive are those of the source. Cut-off read from the data, not from the text of the source: active = GI50 up to about 1.1 µM and inactive = higher.

Ask: Given the entry COC(=O)C1=C(C(=O)OC)C(C(=O)c2ccccc2)N2N=C(c3ccc(Cl)cc3)C=CC12 (centres undefined) , report its measured GI50.
Result: > 100 µM (inactive)

Ask: Given the entry CC1(C)C2CCC1(C)C(NC(=O)CCN1CCOCC1)C2 (centres undefined) , report its measured GI50.
Result: > 100 µM (inactive)

Ask: Given the entry `C[n+]1ccc2/c(=C\C#N)c3ccccc3n21` , report its measured GI50.
Result: 15.8 µM (inactive)

Ask: Given the entry `CC(C)C(/C=C/c1ccc(Cl)cc1)=N\NC(=S)NN` , report its measured GI50.
Result: 27.5 µM (inactive)

Ask: Given the entry `Clc1ccc(-c2cn3c(nc4ccccc43)c(/C=C/c3ccco3)n2)cc1` , report its measured GI50.
Result: 75.7 µM (inactive)

Ask: Given the entry `CCOC(=O)N1[C@@H]2CCC[C@@H]2C(=O)[C@@H]2CCC[C@@H]21` , report its measured GI50.
Result: > 100 µM (inactive)

Ask: Given the entry `CC(C)[C@@H](C)[C@@]1(C)C[C@@H]1[C@@H](C)[C@H]1CC[C@@H]([C@@H]2CC=C3C[C@@H](O)CC[C@]3(C)C2=O)[C@]1(C)CCO` , report its measured GI50.
Result: 15.3 µM (inactive)

Ask: Given the entry C/C(=C\COc1cc(O)c2c(c1)C(=O)c1cc(C)cc(O)c1C2=O)CCC1OC1(C)C (centres undefined) , report its measured GI50.
Result: > 100 µM (inactive)

Ask: Given the entry COc1ccc(/N=N/C(=O)NC(CC(C)C)C(=O)NC(C)C(=O)O)cc1 (centres undefined) , report its measured GI50.
Result: 6.25 µM (inactive)

---

Kindly supply the reported GI50 values for the records listed here.
- System: SNB-19
- TEST_DESCRIPTION: NCI tumour cell line growth inhibition, 48 h
Active and inactive are the calls of the source. Cut-off read from the data, not from the text of the source: active = GI50 up to about 1.1 µM and inactive = higher.

Ask: Given the entry `C[C@H]1C[C@H]2[C@@H]3C(C)(C)O[C@]4(O)C(=O)[C@]5(O)[C@@H](C)CC[C@H]1[C@]25C(=O)[C@]34C` , report its measured GI50.
Result: > 100 µM (inactive)

Ask: Given the entry COC(=O)C1=C(C(=O)OC)C(C(=O)c2ccccc2)N2N=C(c3ccc(Cl)cc3)C=CC12 (stereo not given) , report its measured GI50.
Result: > 100 µM (inactive)

Ask: Given the entry `O=C(O)CCCNS(=O)(=O)c1ccccc1` , report its measured GI50.
Result: > 100 µM (inactive)

Ask: Given the entry `CCCCn1c2c(n(CCCC)c1=[Se])-c1c(n(CCCC)c(=[Se])n1CCCC)S[Se][Se]S2` , report its measured GI50.
Result: 17 µM (inactive)

Ask: Given the entry `COC1=C2C[C@@H](C)C[C@@H](OC)[C@@H](O)[C@H](C)/C=C(\C)[C@@H](OC(N)=O)[C@H](OC)/C=C\C=C(/C)C(=O)NC(=CC1=O)C2=O` , report its measured GI50.
Result: 10.2 µM (inactive)

Ask: Given the entry `CCOC(=O)CNC(=O)OCc1ccccc1` , report its measured GI50.
Result: > 100 µM (inactive)

Ask: Given the entry CC(Cn1c2c(c3cc(O)ccc31)CCc1ccc(O)cc1-2)N(C)C (stereo not given) , report its measured GI50.
Result: 17.8 µM (inactive)

Ask: Given the entry COC(=S)OC1CC(n2cnc3c(=O)[nH]cnc32)OC1CO[Si](C)(C)C(C)(C)C (stereo not given) , report its measured GI50.
Result: > 100 µM (inactive)

Ask: Given the entry CC(=O)OC1COC(Nc2ccc(C(C)=O)cc2)C(OC(C)=O)C1OC(C)=O (stereo not given) , report its measured GI50.
Result: > 100 µM (inactive)

Ask: Given the entry `O=C(/C=C/c1cc(F)ccc1F)OCCc1ccccc1` , report its measured GI50.
Result: > 100 µM (inactive)

Ask: Given the entry `Cc1cc2c(C)n(Cc3ccccc3Cl)nc2c(C(=O)O)c1C` , report its measured GI50.
Result: > 100 µM (inactive)

Ask: Given the entry O=C1N/C(=N\N=C\c2ccccc2)C(c2ccccc2)O1 (stereo not given) , report its measured GI50.
Result: > 100 µM (inactive)

Ask: Given the entry CC(=O)C(C(c1ccccc1)N1CCOCC1)N1CCOCC1 (stereo not given) , report its measured GI50.
Result: > 100 µM (inactive)

Ask: Given the entry `CC(=O)O/N=C/c1ncccc1OC(C)=O` , report its measured GI50.
Result: > 100 µM (inactive)

Ask: Given the entry N#CC(C(=O)CCC(=O)Nc1cccc(C(F)(F)F)c1)c1ccccc1 (stereo not given) , report its measured GI50.
Result: > 100 µM (inactive)

Ask: Given the entry `O=C1c2ccccc2-c2nc(-c3cccc([N+](=O)[O-])c3)nnc21` , report its measured GI50.
Result: 13.9 µM (inactive)

Ask: Given the entry `O=C(CCc1cccc(O)c1)NCCc1ccc(O)cc1` , report its measured GI50.
Result: > 100 µM (inactive)

Ask: Given the entry `CNc1ccc(-c2nc3cc(C)ccc3o2)cc1` , report its measured GI50.
Result: 57.5 µM (inactive)

Ask: Given the entry `COc1cc(/C=C2\C[C@H]3[C@@H]4CC=C5C[C@@H](N6CCCC6)CC[C@]5(C)[C@H]4CC[C@]3(C)[C@H]2OC(C)=O)cc(OC)c1OC` , report its measured GI50.
Result: 18.4 µM (inactive)

Ask: Given the entry `CCOc1cccc2c1N[S@@](=O)S2` , report its measured GI50.
Result: 59.2 µM (inactive)
